Data provenance: paper PMC3040172

subject of test: DNA topoisomerase II beta, full length (human, UniProt Q02880 1-1626)
Sequence (Q02880 whole entry): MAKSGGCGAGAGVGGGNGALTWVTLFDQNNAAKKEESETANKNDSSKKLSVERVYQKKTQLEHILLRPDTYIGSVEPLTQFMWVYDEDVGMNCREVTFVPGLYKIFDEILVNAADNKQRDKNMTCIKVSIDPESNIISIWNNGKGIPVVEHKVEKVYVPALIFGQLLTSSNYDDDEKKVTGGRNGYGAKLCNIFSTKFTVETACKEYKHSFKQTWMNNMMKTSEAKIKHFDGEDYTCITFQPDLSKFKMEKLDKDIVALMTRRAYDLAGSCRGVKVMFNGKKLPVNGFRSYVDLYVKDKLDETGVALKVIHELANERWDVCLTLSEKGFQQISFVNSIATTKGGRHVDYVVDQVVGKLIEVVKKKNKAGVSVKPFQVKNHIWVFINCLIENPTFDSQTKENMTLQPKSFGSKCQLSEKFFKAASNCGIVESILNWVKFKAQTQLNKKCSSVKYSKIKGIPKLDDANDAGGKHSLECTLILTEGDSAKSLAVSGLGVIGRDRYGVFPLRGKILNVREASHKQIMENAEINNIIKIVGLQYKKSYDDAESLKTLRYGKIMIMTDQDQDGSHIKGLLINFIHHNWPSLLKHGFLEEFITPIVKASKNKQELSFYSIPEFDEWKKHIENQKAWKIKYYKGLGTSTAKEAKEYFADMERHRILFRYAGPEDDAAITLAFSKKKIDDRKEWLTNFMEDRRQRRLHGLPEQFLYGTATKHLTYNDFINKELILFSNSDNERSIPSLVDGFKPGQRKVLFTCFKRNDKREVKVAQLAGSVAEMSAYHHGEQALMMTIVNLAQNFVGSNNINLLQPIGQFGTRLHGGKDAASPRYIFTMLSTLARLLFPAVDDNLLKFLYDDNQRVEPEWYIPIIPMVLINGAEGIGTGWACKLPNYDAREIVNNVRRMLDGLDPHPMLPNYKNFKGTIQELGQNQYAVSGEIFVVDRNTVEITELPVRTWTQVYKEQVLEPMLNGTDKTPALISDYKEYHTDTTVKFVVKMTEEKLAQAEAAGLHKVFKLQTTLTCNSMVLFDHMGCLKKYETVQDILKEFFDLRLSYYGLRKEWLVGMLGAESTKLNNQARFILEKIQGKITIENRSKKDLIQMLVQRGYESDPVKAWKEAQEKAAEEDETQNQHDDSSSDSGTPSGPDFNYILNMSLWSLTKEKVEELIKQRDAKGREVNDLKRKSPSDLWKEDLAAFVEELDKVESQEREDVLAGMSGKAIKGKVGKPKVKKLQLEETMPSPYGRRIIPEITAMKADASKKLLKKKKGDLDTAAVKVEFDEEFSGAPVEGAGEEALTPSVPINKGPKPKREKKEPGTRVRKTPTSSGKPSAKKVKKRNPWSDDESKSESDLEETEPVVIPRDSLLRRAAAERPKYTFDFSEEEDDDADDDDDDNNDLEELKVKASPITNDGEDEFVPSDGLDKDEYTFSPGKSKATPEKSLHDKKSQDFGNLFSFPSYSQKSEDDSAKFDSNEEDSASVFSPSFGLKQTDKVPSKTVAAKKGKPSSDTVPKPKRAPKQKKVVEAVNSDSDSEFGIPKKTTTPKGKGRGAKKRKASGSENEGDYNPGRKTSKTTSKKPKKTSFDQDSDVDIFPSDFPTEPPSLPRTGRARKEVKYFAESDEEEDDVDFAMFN
experimental details: fluorescence anisotropy; 10 mM MgCl2; 50 mM Tris pH 8, 5% glycerol, 50 mM KCl, 1% Triton X-100, 100 µg/ml acetylated BSA, 20°C; HEX oligo printed as 1 µM; 10 mM MgCl2 or CaCl2 where described
condition label: protein: recombinant; chain copies: 2; blunt; as printed S2 is not the exact complement of S1: 2 mismatches at S1 positions 34-35 (possible typo)
parameter measured: Kd

Lookup: # query: Kd of entry 40 bp oligo AB (dsDNA) DNA 1: CGCAATCTGACAATGCGCTCATCGTCATCCTCGCGACGCG DNA 2: CGCGTGCCGAGGATGACGATGAGCGCATTGTCAGATTGCG
Found: 55.4 nM
